Origin of the recorded values: PubChem BioAssay (NCI)

System: OVCAR-5 ovarian
Assay: NCI tumour cell line growth inhibition, 48 h
Property: TGI

Ask | Fill in the blank: the reported TGI of CC(C)OC(=O)Nc1ccc(-c2nc(-c3cccc(OCCN4CCOCC4)c3)c(-c3ccnc(Br)c3)[nH]2)cc1 is ____.
Reply | > 100 µM

Ask | Fill in the blank: the reported TGI of COC1(C)OC[C@@]2(C)OC(C)C1(C)C2O[Si](C(C)C)(C(C)C)C(C)C (stereo partly specified) is ____.
Reply | 71.8 µM

Ask | Fill in the blank: the reported TGI of O=c1[nH]cnc2[nH]cc(CN3CCCCC3)c12 is ____.
Reply | > 100 µM

Ask | Fill in the blank: the reported TGI of COc1cc(C(C)c2cc3c(cc2OCCN)OCO3)cc(OC)c1OC (stereo unspecified) is ____.
Reply | > 100 µM

Ask | Fill in the blank: the reported TGI of COc1ccc(C2C(C#N)=C(N)Oc3c2sc2c(C)cccc32)cc1 (stereo unspecified) is ____.
Reply | 14.2 µM

Ask | Fill in the blank: the reported TGI of CCOc1ccc(NC(=O)CC2C(=O)Nc3ccccc3S2=O)cc1 (stereo unspecified) is ____.
Reply | > 100 µM

Ask | Fill in the blank: the reported TGI of O=C(O)c1ccc(C=C2Sc3ccccc3S2)cc1 is ____.
Reply | > 100 µM

Ask | Fill in the blank: the reported TGI of C=C1C(=O)c2sccc2C(c2ccc(OC)c(OC)c2)C1COC(C)=O (stereo unspecified) is ____.
Reply | 9.29 µM

Ask | Fill in the blank: the reported TGI of COc1ccc(C(=O)Cc2ccc(Cl)cc2)cc1OC is ____.
Reply | > 100 µM

Ask | Fill in the blank: the reported TGI of CCOC(=O)C1=CC(C)(C(=O)OCC)Nc2c(nc(SC)[nH]c2=O)N1 (stereo unspecified) is ____.
Reply | > 10 µM

Ask | Fill in the blank: the reported TGI of CC(C)CC(N=Cc1nc(-c2ccccc2)oc1O)C(=O)O (stereo unspecified) is ____.
Reply | > 100 µM

* * *

Property: GI50

Ask | Give recorded GI50 with OVCAR-3 ovarian for the following compound: COc1ccc(C(O)c2cc3c(N)c(C(=O)Nc4ccc(Br)cc4)sc3nc2C)cc1 (configuration not stated)
Reply | 2.19 µM

Ask | Give recorded GI50 with OVCAR-3 ovarian for the following compound: C/C(Cc1ccc(Cl)cc1)=C(\c1ccc(OCCN2CCCCCC2)cc1)c1ccc(OC(=O)c2ccccc2)cc1
Reply | 3.78 µM

Ask | Give recorded GI50 with OVCAR-3 ovarian for the following compound: O=C(Nc1ccc(OCc2nnc(-c3ccc(Cl)cc3)o2)c(F)c1)Nc1ccc(Cl)c(Cl)c1
Reply | 10.7 µM

Ask | Give recorded GI50 with OVCAR-3 ovarian for the following compound: C=CC(=O)N1CC2(CCC(n3nc(-c4ccc(Oc5ccccc5)cc4)c4c(N)ncnc43)CC2)C1
Reply | 0.641 µM

Ask | Give recorded GI50 with OVCAR-3 ovarian for the following compound: CCCCCCC[CH2][Sn]([Cl])([Cl])[CH2]CCCCCCC
Reply | 4.91 µM

Ask | Give recorded GI50 with OVCAR-3 ovarian for the following compound: CCC[CH2][Sn]1([CH2]CCC)[O]CC(c2ccccn2)C[O]1
Reply | 16.7 µM

Ask | Give recorded GI50 with OVCAR-3 ovarian for the following compound: Clc1ccc(-c2ccc(CNCC3CCNCC3)o2)c(-c2ccccc2)c1
Reply | 1.74 µM

Ask | Give recorded GI50 with OVCAR-3 ovarian for the following compound: Cc1ccc2cc3c(N)c4c(C)ccc(C)c4nc3nc2c1
Reply | 6.12 µM

Ask | Give recorded GI50 with OVCAR-3 ovarian for the following compound: Clc1nc(Cl)c2ncn(CC#CCn3cnc4c(Cl)nc(Cl)nc43)c2n1
Reply | 2.06 µM

Ask | Give recorded GI50 with OVCAR-3 ovarian for the following compound: COC(=O)C(=Cc1ccccc1[N+](=O)[O-])C(=O)OC
Reply | 2.28 µM

Ask | Give recorded GI50 with OVCAR-3 ovarian for the following compound: CC[C@H](Nc1cc(C)nc(N)n1)c1nc2cccc(NCc3ccc(C(=O)NO)cc3)c2c(=O)n1-c1ccccc1
Reply | 1.86 µM

Ask | Give recorded GI50 with OVCAR-3 ovarian for the following compound: NC1CCCCC1N.O=NN1CCCCCC1(P(=O)([O-])[O-])P(=O)([O-])[O-].[Na+].[Pt+2]
Reply | > 100 µM

Ask | Give recorded GI50 with OVCAR-3 ovarian for the following compound: C=CCSSC1N=CNc2nc[nH]c21 (configuration not stated)
Reply | 0.944 µM

Ask | Give recorded GI50 with OVCAR-3 ovarian for the following compound: Nc1nonc1-c1nc2cnccc2n1C1CCCCC1
Reply | 10.7 µM

Ask | Give recorded GI50 with OVCAR-3 ovarian for the following compound: Cc1ccc(-c2c3c(nn2-c2ccc(S(=O)(=O)NC(=O)Nc4ccccc4)cc2)-c2ccccc2C3)cc1
Reply | 32.9 µM

Ask | Give recorded GI50 with OVCAR-3 ovarian for the following compound: CCSc1nc2[nH]c(=S)[nH]c(=S)c2c(-c2ccc(OC)c(OC)c2)c1C#N
Reply | 11 µM

Ask | Give recorded GI50 with OVCAR-3 ovarian for the following compound: COC(=O)c1ccc2[nH]c(O)c(C(=Nc3ccc(N(C)C(=O)CN4CCN(C)CC4)cc3)c3ccc(OC)cc3)c2c1
Reply | 1.23 µM

* * *

Exercise: for every item that follows, state its recorded GI50.

Ask | Give recorded GI50 with IGROV1 ovarian for the following compound: C=C(CN1CCc2ccccc2C1)c1ccc(CCC(=O)Nc2ccccc2N)cc1
Reply | 16.3 µM

Ask | Give recorded GI50 with IGROV1 ovarian for the following compound: CC/C(=C(\c1ccc(Cl)cc1)c1ccc(OCCN2CCCCC2)cc1)c1ccc(O)cc1
Reply | 1.91 µM

Ask | Give recorded GI50 with IGROV1 ovarian for the following compound: Clc1ccc(-c2ccc(CNCC3CCNCC3)o2)c(-c2ccccc2)c1
Reply | 1.39 µM

Ask | Give recorded GI50 with IGROV1 ovarian for the following compound: CC(=O)Nc1cccc(C#Cc2cncnc2Nc2ccc(OCc3cccc(F)c3)c(Cl)c2)n1
Reply | 4.2 µM

Ask | Give recorded GI50 with IGROV1 ovarian for the following compound: COc1cccc2c(Nc3ccc(C(=O)O)cc3)cc(-c3ccccc3)nc12
Reply | > 100 µM

* * *

Exercise: for every item that follows, state its recorded TGI.
System: A549 NSCLC
Assay: NCI tumour cell line growth inhibition, 48 h

Ask | Fill in the blank: the reported TGI of Cc1cc2c(cc1C)[n+]([O-])c(NCCCN(C)C)c(C#N)[n+]2[O-] is ____.
Reply | > 100 µM

Ask | Fill in the blank: the reported TGI of COc1ccc([C@H]2[C@H](C)C3=Nc4ccccc4CN32)cc1 is ____.
Reply | > 100 µM

Ask | Fill in the blank: the reported TGI of CC(=O)c1ccc(NC(=O)/C(CC(=O)/C=C/c2ccccc2)=N/NC(N)=S)cc1 is ____.
Reply | > 100 µM

Ask | Fill in the blank: the reported TGI of Cc1nc2nn[nH]n2c(=O)c1CCO is ____.
Reply | > 100 µM

Ask | Fill in the blank: the reported TGI of COC(=O)C(=Cc1ccccc1[N+](=O)[O-])C(=O)OC is ____.
Reply | 21.7 µM

Ask | Fill in the blank: the reported TGI of COC(=O)C1=C(OC(=O)/C(=C/c2ccccc2)c2ccccc2)C(C(=O)OC)[C@@]2(O)[C@@H](C(=O)OC)[C@H](C)C[C@@H]1[C@@H]2C(=O)OC (some centres not stated) is ____.
Reply | > 100 µM

Ask | Fill in the blank: the reported TGI of C/C(=C\CO)CC/C=C(\C)CNc1ccccc1 is ____.
Reply | > 100 µM

Ask | Fill in the blank: the reported TGI of Cc1ccc2cc3c(N)c4c(C)ccc(C)c4nc3nc2c1 is ____.
Reply | 3.44 µM

Ask | Fill in the blank: the reported TGI of COc1ccc(C(=O)Cc2ccc(Cl)cc2)cc1OC is ____.
Reply | > 100 µM

Ask | Fill in the blank: the reported TGI of COc1cccc2c1C(=O)C1(O)CCCCC21 (configuration not stated) is ____.
Reply | > 100 µM

Ask | Fill in the blank: the reported TGI of Cc1ccc(-c2c(C#N)c(-c3ccccc3)c(C#N)c(=O)n2NS(=O)(=O)c2ccc(C)cc2)cc1 is ____.
Reply | > 100 µM

Ask | Fill in the blank: the reported TGI of O=C(CC(=O)Nc1ccc(C(=O)O)cc1)Nc1ccc(C(=O)O)cc1 is ____.
Reply | > 100 µM

Ask | Fill in the blank: the reported TGI of COc1ccc(OC)c2c(C(=O)O)c(C(C)c3ccccc3)ccc12 (configuration not stated) is ____.
Reply | > 100 µM

Ask | Fill in the blank: the reported TGI of O=C(NNc1cn[nH]c(=O)n1)c1cccc2nc3ccccc3nc12 is ____.
Reply | > 100 µM

Ask | Fill in the blank: the reported TGI of COc1ccc(C2c3c(n(C)c(=O)n(C)c3=O)OC(N(C)C)(N(C)C)C2(F)F)cc1 (configuration not stated) is ____.
Reply | > 100 µM

Ask | Fill in the blank: the reported TGI of N#Cc1nc(-c2ccccc2C(=O)O)oc1N is ____.
Reply | > 100 µM

Ask | Fill in the blank: the reported TGI of Cc1nc2ccccn2c1NC(=O)NNC(=S)Nc1ccc(Cl)cc1 is ____.
Reply | > 100 µM

Ask | Fill in the blank: the reported TGI of CCOC(=O)C1=CC(C)(C(=O)OCC)Nc2c(nc(SC)[nH]c2=O)N1 (configuration not stated) is ____.
Reply | > 10 µM

Ask | Fill in the blank: the reported TGI of O/N=C(\C(=N/O)Nc1ccc(-c2ccc(NC(=N/O)/C(=N\O)c3ccccc3)cc2)cc1)c1ccccc1 is ____.
Reply | 79.1 µM

Ask | Fill in the blank: the reported TGI of Cc1cc2nc3c4cc(C=O)ccc4n(CCN(C)C)c3nc2cc1C is ____.
Reply | 10.4 µM

Ask | Fill in the blank: the reported TGI of COc1ccc(NCc2cc(OC)cc(OC)c2)cc1 is ____.
Reply | > 100 µM

Ask | Fill in the blank: the reported TGI of O=C(CSc1nnc(Cc2ccccc2)o1)Nc1ccc(Cl)cc1Cl is ____.
Reply | > 100 µM
